Test system: DU-145
Assay: NCI tumour cell line growth inhibition, 48 h
Active and inactive are the calls of the source. Rule as the data show it: active = GI50 up to about 1.1 µM and inactive = higher.
Parameter GI50: see the listing below.

{"COMPOUND": "N#CC1=C(N2CCOCC2)CCC1", "GI50": "> 100 µM (inactive)"}
{"COMPOUND": "O=C(Nc1ccc(Cl)cc1)c1cc(S(=O)(=O)Nc2n[nH]c(=O)n2-c2ccccc2)c(S)cc1Cl", "GI50": "> 100 µM (inactive)"}
{"COMPOUND": "C1CNOCCCONCCCNOCCCONC1", "GI50": "58.9 µM (inactive)"}
{"COMPOUND": "COC1OC(C(=O)O)C2OC(C)(C)OC12 (configuration not stated)", "GI50": "> 100 µM (inactive)"}
{"COMPOUND": "Cc1ccc(CC[PH](=O)CCc2ccc(C)nc2)cn1", "GI50": "> 100 µM (inactive)"}
{"COMPOUND": "O=S(=O)(N/C(=N\\O)Nc1ccc(Cl)cc1)c1ccccc1", "GI50": "18.5 µM (inactive)"}
{"COMPOUND": "C=C[C@H]1CN2CC[C@H]1C[C@@H]2[C@@H](O)c1ccnc2ccccc12", "GI50": "> 100 µM (inactive)"}
